Species on record: Mus musculus
Test: Positive allosteric modulation of AMPAR in mouse embryonic stem cell-derived neurons assessed as intracellular Ca2+ flux by FLIPR assay in presence of cyclothiazide relative to AMPA
Format: cell-based
Here the recorded Emax is given for each entry.
ASSAY_READOUT: Emax (%)

MOLECULE: CC(C)S(=O)(=O)NC[C@@H]1CC(c2ccc(N3CCCC3)c(F)c2)=NO1
ASSAY_READOUT: Emax
RECORDED_NUMBER: 147
--
MOLECULE: CC(C)S(=O)(=O)NCC1CC(c2ccc(N3CCCC3)c(F)c2)=NO1 (racemic)
ASSAY_READOUT: Emax
RECORDED_NUMBER: 128
--
MOLECULE: CC(C)S(=O)(=O)NCC1CC(c2ccc(-c3ccccc3C#N)c(F)c2)=NO1 (racemic)
ASSAY_READOUT: Emax
RECORDED_NUMBER: 152
--
MOLECULE: CC(C)S(=O)(=O)NCC1CC(c2ccc(N3CCCC3)cc2)=NO1 (racemic)
ASSAY_READOUT: Emax
RECORDED_NUMBER: 169
--
MOLECULE: CC(C)S(=O)(=O)NCC1CC(c2ccc(-c3cccnc3)c(F)c2)=NO1 (racemic)
ASSAY_READOUT: Emax
RECORDED_NUMBER: 157
--
MOLECULE: CC(C)S(=O)(=O)NCC1CC(c2ccc(-c3cccc(C#N)c3)c(F)c2)=NO1 (racemic)
ASSAY_READOUT: Emax
RECORDED_NUMBER: 156
--
MOLECULE: CC(=O)N[C@H]1CCN(c2ccc(C3=NO[C@H](CNS(=O)(=O)C(C)C)C3)cc2F)C1
ASSAY_READOUT: Emax
RECORDED_NUMBER: 143
--
MOLECULE: CC(C)S(=O)(=O)NCC1CC(c2ccc(-c3ccc(C#N)cc3)c(F)c2)=NO1 (racemic)
ASSAY_READOUT: Emax
RECORDED_NUMBER: 124
--
MOLECULE: CC(C)S(=O)(=O)NC[C@H]1CC(c2ccc(N3CCCC3)c(F)c2)=NO1
ASSAY_READOUT: Emax
RECORDED_NUMBER: 114
--
MOLECULE: CC(C)S(=O)(=O)NCC1CC(c2ccc(-c3ccccc3)c(F)c2)=NO1 (racemic)
ASSAY_READOUT: Emax
RECORDED_NUMBER: 138

###

Test: Fraction unbound in Sprague-Dawley rat brain at 0.01 mg/kg, iv
Assay type: ADME, organism-based
Parameters: dose 0.01 mg/kg, route intravenous

SMI: CC(C)S(=O)(=O)NC[C@@H]1CC(c2ccc(N3CCCC3)c(F)c2)=NO1
fraction unbound: 0.014

###

Assay: Ratio of free drug level from brain to plasma in Sprague-Dawley rat at 0.2 mg/kg, sc qd
Type: ADME, organism-based
Parameters: dose 0.2 mg/kg, route subcutaneous
Conditions: read-out: K(p,uu,brain)

SMI: CC(C)S(=O)(=O)NC[C@@H]1CC(c2ccc(N3CCCC3)c(F)c2)=NO1
Kp uu: 0.54

###

Experiment: Apparent intrinsic clearance in human liver microsomes
Format: ADME
Conditions: read-out: CLH(app)
ASSAY_READOUT: microsomal CLint (µL/min/mg)

SMI: CC(=O)NC[C@@H]1CC(c2ccc(N3CCCC3)c(F)c2)=NO1
RECORDED_NUMBER: 26

Data provenance is ChEMBL document CHEMBL3108690.
